- Measurement target: CDK2/Cyclin E2 (Homo sapiens)
- Construct: Recombinant protein complex CDK2/Cyclin E2, expressed from insect cell, was purchased from ProQinase
- Assay notes: CDK2/CyclinE2 Enzymatic Activity Assay (TR-FRET)
- Test parameters: ATP 1 mM final, read-out: CDK2_E1 IC50
- Protocol: CDK2/CyclinE2 Enzymatic Activity Assay The inhibitory activity of compounds was evaluated in vitro using TR-FRET assay with white 384-well low volume microplate (Greiner Bio-One). CDK2/Cyclin E2 catalyzed phosphorylation of peptide in the presence and absence of compounds was measured and used in IC50 determination. […] The reaction signal was measured by Envision multimode plate reader (PerkinElmer, 2102-0010). […]
Property: IC50

QUERY: Write down the reported IC50 of `C[C@@H]1CN(S(=O)(=O)c2cn(C)cn2)CC[C@@H]1Nc1ncc(C(F)(F)F)c(-c2cc(C#N)c(CC(C)(C)O)s2)n1` , test system: CDK2/Cyclin E2 (Homo sapiens).
RESULT: ≤ 100 nM

QUERY: Write down the reported IC50 of `Cc1cnc(-c2nc(N[C@H]3CCN(S(=O)(=O)c4cn(C)cn4)C[C@H]3F)ncc2C(F)(F)F)s1` , test system: CDK2/Cyclin E2 (Homo sapiens).
RESULT: ≤ 100 nM

Kindly consider the entry below.
QUERY: Write down the reported IC50 of `Cn1cnc(S(=O)(=O)N2CC[C@H](Nc3ncc(C(F)(F)F)c(-c4cc(C#N)c(CC(C)(C)O)s4)n3)[C@H](F)C2)c1` , test system: CDK2/Cyclin E2 (Homo sapiens).
RESULT: ≤ 100 nM

These data points were gathered from patent US20240150340A1.
